- System Name: AC5 (UniProt P30803)
- Test Name: Inhibition of recombinant AC5 (baculovirus overexpression system)
- Format: biochemical
- Design: IC50 AC5
- Run Parameters: read-out: IC50 for AC5

>  <Chemical Smiles>
Nc1ncnc2c1ncn2[C@@H]1O[C@H](CO)[C@@H](OP(=O)(O)O)[C@H]1O

>  <IC50 / µM>
14.6

$$$$
>  <Chemical Smiles>
Nc1ncnc2c1ncn2[C@H]1C[C@H](OP(=O)(O)O)[C@@H](CO)O1

>  <IC50 / µM>
0.82

$$$$

---

Parameter: pIC50. Scope: all listed entries.
- System Name: AC5 (UniProt P30803)
- Test Name: Inhibition of recombinant AC5 (baculovirus overexpression system)
- Type: biochemical
- Design: IC50 AC5
- Run Parameters: recombinant AC proteins, Table 1; read-out: IC50 AC5
pIC50: −log10 of the molar value.

>  <Compound>
Nc1ncnc2c1ncn2[C@@H]1O[C@H](CO)[C@@H](O)[C@@H]1O [AraAde, 9-β-D-arabinofuranosyladenine]

>  <pIC50>
5.01

$$$$
>  <Compound>
C[C@H]1O[C@@H](n2cnc3c(N)ncnc32)C[C@@H]1O [2′5′-dd-Ado, 2′5′ dideoxyadenosine]

>  <pIC50>
5.80

$$$$
>  <Compound>
Nc1ncnc2c1ncn2C1CCC(C(=O)NO)C1 (stereo not drawn) [PMC-6]

>  <pIC50>
6.49

$$$$

---

- System Name: AC2 (UniProt P26769)
- Test Name: Inhibition of recombinant AC2 (baculovirus overexpression system)
- Run Parameters: read-out: IC50 AC2; recombinant AC proteins, Table 1
pIC50: −log10 of the molar value.

>  <Compound>
Nc1ncnc2c1ncn2[C@@H]1O[C@H](CO)[C@@H](O)[C@@H]1O

>  <System Name>
AC2 (UniProt P26769)

>  <pIC50>
2.14

$$$$
>  <Compound>
C[C@H]1O[C@@H](n2cnc3c(N)ncnc32)C[C@@H]1O

>  <System Name>
AC2 (UniProt P26769)

>  <pIC50>
2.62

$$$$
>  <Compound>
Nc1ncnc2c1ncn2C1CCC(C(=O)NO)C1 (stereo not drawn)

>  <System Name>
AC2 (UniProt P26769)

>  <pIC50>
4.19

$$$$

---

- System Name: AC3 (Rattus norvegicus)
- Construct: made in house; host or cells: insect cells (baculovirus)
- Sequence (P21932 whole entry): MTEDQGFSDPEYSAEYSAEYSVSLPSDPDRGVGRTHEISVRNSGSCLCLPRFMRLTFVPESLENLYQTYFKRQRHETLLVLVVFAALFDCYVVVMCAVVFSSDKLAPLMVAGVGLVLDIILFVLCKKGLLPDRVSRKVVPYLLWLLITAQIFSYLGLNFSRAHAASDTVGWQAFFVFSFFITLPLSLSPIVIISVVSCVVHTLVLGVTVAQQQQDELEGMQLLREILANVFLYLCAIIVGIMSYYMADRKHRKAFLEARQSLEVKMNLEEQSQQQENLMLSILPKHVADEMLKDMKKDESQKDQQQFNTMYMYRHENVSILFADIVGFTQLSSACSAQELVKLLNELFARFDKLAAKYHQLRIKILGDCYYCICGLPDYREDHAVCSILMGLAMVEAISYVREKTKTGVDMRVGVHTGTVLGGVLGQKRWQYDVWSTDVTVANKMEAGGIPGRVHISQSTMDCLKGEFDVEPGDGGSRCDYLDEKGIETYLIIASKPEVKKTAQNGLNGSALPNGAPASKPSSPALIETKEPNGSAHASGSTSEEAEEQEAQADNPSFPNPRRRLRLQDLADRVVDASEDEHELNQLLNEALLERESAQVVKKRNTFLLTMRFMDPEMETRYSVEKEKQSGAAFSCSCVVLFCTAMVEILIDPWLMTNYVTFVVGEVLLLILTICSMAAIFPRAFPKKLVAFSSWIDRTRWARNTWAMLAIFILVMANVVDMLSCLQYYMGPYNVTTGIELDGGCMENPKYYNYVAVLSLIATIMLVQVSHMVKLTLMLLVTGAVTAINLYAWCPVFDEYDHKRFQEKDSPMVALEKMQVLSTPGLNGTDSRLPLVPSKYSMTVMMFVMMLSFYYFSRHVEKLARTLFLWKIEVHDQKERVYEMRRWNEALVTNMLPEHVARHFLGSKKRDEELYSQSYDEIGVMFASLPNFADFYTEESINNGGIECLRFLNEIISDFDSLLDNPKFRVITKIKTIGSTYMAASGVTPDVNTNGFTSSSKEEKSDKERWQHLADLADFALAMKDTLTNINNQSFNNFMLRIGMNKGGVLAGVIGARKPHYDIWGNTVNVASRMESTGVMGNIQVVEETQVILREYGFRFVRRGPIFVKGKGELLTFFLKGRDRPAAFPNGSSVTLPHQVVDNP
- Test Name: Inhibition of recombinant AC3 (baculovirus overexpression system)
- Type: biochemical
Measurement Label: IC50 (µM)

>  <Chemical Smiles>
C[C@H]1O[C@@H](n2cnc3c(N)ncnc32)C[C@@H]1O

>  <System Name>
AC3 (Rattus norvegicus)

>  <Readout Number>
253

$$$$

---

- System Name: AC3 (Rattus norvegicus)
- Construct: made in house; host or cells: insect cells (baculovirus)
- Test Name: Inhibition of recombinant AC3 (baculovirus overexpression system)
- Type: biochemical
- Run Parameters: recombinant AC proteins, Table 1; read-out: IC50 AC3
Measurement Label: IC50 (µM)

>  <Molecule>
Nc1ncnc2c1ncn2C1CCC(C(=O)NO)C1 (centres unmarked)

>  <System Name>
AC3 (Rattus norvegicus)

>  <U>
µM

>  <Readout Number>
11.1

$$$$
>  <Molecule>
Nc1ncnc2c1ncn2[C@@H]1O[C@H](CO)[C@@H](O)[C@@H]1O

>  <System Name>
AC3 (Rattus norvegicus)

>  <U>
µM

>  <Readout Number>
375

$$$$
